Where do the numbers come from? From paper PMC2587488.

Test system: mitochondrial cytochrome P450s
Test: in vitro
Details: rat, pH 7.4, inhibition of melatonin O-demethylation (NAS formation)
Measured Parameter: inhibition at 60 min, 100 μM (%)
Quick note: give the figure in %, leave out the unit.

Task: Indicate its recorded inhibition at 60 min, 100 μM; the compound in question is COc1ccc2[nH]c([S+]([O-])Cc3ncc(C)c(OC)c3C)nc2c1 (stereo not shown) [Omeprazole, omeprazole]
Result: 81

* * *

Test system: rat microsomal cytochrome P450s
Test: in vitro
Settings: microsomes, pH 7.4, inhibition of melatonin O-demethylation (NAS formation)
Measured Parameter: inhibition at 60 min, 50 μM (%)
Quick note: give the figure in %, leave out the unit.

Task: Indicate its recorded inhibition at 60 min, 50 μM; the molecule in question is CCN(CC)C(=S)S [Diethyldihydrocarbamate, diethyldithiocarbamate]
Result: 38

* * *

This listing pairs compounds with measured inhibition at 60 min, 5 μM.
Test system: rat microsomal cytochrome P450s
Test: in vitro
Conditions: microsomes, pH 7.4, inhibition of melatonin O-demethylation (NAS formation)
Quick note: give the figure in %, leave out the unit.

C=C[C@H]1C[N@@]2CC[C@H]1C[C@@H]2[C@@H](O)c1ccnc2ccc(OC)cc12 [Quinidine, quinidine] :: 38

Could you now consider this next compound?
Task: Indicate its recorded inhibition at 60 min, 5 μM; the compound in question is CC(=O)N1CCN(c2ccc(OCC3COC(Cn4ccnc4)(c4ccc(Cl)cc4Cl)O3)cc2)CC1 (centres unmarked) [Ketoconazole, ketoconazole]
Result: 52

* * *

This listing pairs compounds with measured inhibition at 60 min, 5 μM.
Test system: mitochondrial cytochrome P450s
Test: in vitro
Details: rat, pH 7.4, inhibition of melatonin O-demethylation (NAS formation)
Quick note: give the figure in %, leave out the unit.

CC(=O)N1CCN(c2ccc(OCC3COC(Cn4ccnc4)(c4ccc(Cl)cc4Cl)O3)cc2)CC1 (centres unmarked) [Ketoconazole, ketoconazole] :: 49

Could you now consider this next compound?
Task: Indicate its recorded inhibition at 60 min, 5 μM; the compound in question is C=C[C@H]1C[N@@]2CC[C@H]1C[C@@H]2[C@@H](O)c1ccnc2ccc(OC)cc12 [Quinidine, quinidine]
Result: 33

* * *

Tested on: mitochondrial cytochrome P450s
Assay: in vitro
Conditions: rat, pH 7.4, inhibition of melatonin O-demethylation (NAS formation)
Measured Parameter: inhibition at 60 min, 10 μM (%)
Quick note: give the figure in %, leave out the unit.

Task: Indicate its recorded inhibition at 60 min, 10 μM; the compound in question is "Nc1ccc(S(=O)(=O)Nc2ccnn2-c2ccccc2)cc1"
Result: 27

* * *

System: mitochondrial cytochrome P450s
Experiment: in vitro
Settings: rat, pH 7.4, inhibition of melatonin O-demethylation (NAS formation)
Measured Parameter: inhibition at 60 min, 50 μM (%)
Quick note: give the figure in %, leave out the unit.

Task: Indicate its recorded inhibition at 60 min, 50 μM; the compound in question is CCN(CC)C(=S)S [Diethyldihydrocarbamate, diethyldithiocarbamate]
Result: 74

* * *

Tested on: rat microsomal cytochrome P450s
Assay: in vitro
Settings: microsomes, pH 7.4, inhibition of melatonin O-demethylation (NAS formation)
Measured Parameter: inhibition at 60 min, 20 μM (%)
Quick note: give the figure in %, leave out the unit.

Task: Indicate its recorded inhibition at 60 min, 20 μM; the compound in question is "Cc1nc2c([nH]1)c(=O)n(C)c(=O)n2Cc1ccco1"
Result: 27
